assay: TEAD-YAP interaction inhibition, primary screen, TEAD-YAP interaction inhibitor project, luminescence, HEK-TIYL cells (AID 1259422); conditions: TEAD-Gal4/YAP UAS-luciferase luminescence, at 9.12 µM
Out of some 640,000 compounds screened, about 9,300 (1.5%) were called active. Cut-off read from the data, not from the text of the source: active = inhibition above about 32%; inactive = the rest. Shown is part of a subset that was picked to be rich in actives.
Labels: Yes (active), No (inactive)

- compound: "O=C(Nc1cccc(N2CCC(NCCc3ccco3)CC2)c1)c1ccncc1"
  group: "No"
- compound: "N#Cc1c(NC(=O)c2cc([N+](=O)[O-])ccc2Cl)sc2c1CCC2"
  group: "Yes"
- compound: "O=C(COC(=O)c1cc2ccccc2oc1=O)c1ccc(I)cc1"
  group: "No"
- compound: "COc1ccc(/C=C2/SC(=O)N(CCCC(=O)Nc3ccc(C(=O)O)cc3)C2=O)cc1"
  group: "Yes"
- compound: "COC(=O)COc1ccc(/C=C2/NC(=O)N(c3ccccc3)C2=O)cc1OC"
  group: "No"
- compound: "O=C(NC1CCCC1)c1ccc(N2CCC(NCCc3ccco3)CC2)cc1"
  group: "No"
- compound: "COCCNC(=O)c1ccc2c(c1)N=C(C)c1cc(Br)ccc1S2"
  group: "Yes"
- compound: "COc1ccc(Cl)cc1Nc1ncnc2c1c(-c1ccccc1)cn2-c1ccc(C)cc1"
  group: "No"
- compound: "O=C(CNC(=O)c1ccc(Br)o1)OCC(=O)c1ccc(Br)cc1"
  group: "No"
- compound: "CCOc1ccc(C(=O)NCC(=O)OCC#N)cc1"
  group: "No"
- compound: "O=C1CCCN1CCCNc1nc(Nc2ccccc2)c2ncn(-c3ccsc3)c2n1"
  group: "No"
- compound: "CCN(CC)C(=O)c1cc2cc3ccc(OC)cc3nc2o1"
  group: "Yes"
- compound: "CCOC(=O)c1ccc(NC(=O)COc2c(Br)cc(C=O)cc2OC)cc1"
  group: "No"
- compound: "CCNc1nc(NCCCN2CCCC2=O)c2ncn(-c3ccccc3)c2n1"
  group: "No"
- compound: "CCOc1ccc(C2C(C#N)=C(N)N(c3cccc(C)c3)C3=C2C(=O)CC(C)(C)C3)cc1 (configuration not stated)"
  group: "Yes"
- compound: "CCCCOC(=O)c1cc(-c2ccc(OC)cc2)nc2ccc(Br)cc12"
  group: "No"
- compound: "COc1ccc(/C=C2\\SC(=O)N(Cc3ccc(C(=O)O)cc3)C2=O)cc1"
  group: "No"
- compound: "COCCNC(=O)c1ccc2c(c1)ncn2-c1ccc(C)c(Cl)c1"
  group: "No"
- compound: "CCOc1ccc(C2C(C#N)=C(N)N(c3cccc([N+](=O)[O-])c3)C3=C2C(=O)CC(C)(C)C3)cc1 (configuration not stated)"
  group: "No"
- compound: "CC1=Nc2cc(C(=O)O)ccc2Sc2ccccc21"
  group: "No"
- compound: "Cc1cccc(N2C(N)=C(C#N)C(c3ccc(F)cc3)C3=C2CC(C)(C)CC3=O)c1 (configuration not stated)"
  group: "No"
- compound: "CCN1CCSc2ccc(C(=O)NCCCOC)cc21"
  group: "No"
